(rel. efficacy) Alpha 2B values by entry
- system tested: alpha2B receptor (Homo sapiens)
- Construct: expressed in transfected cells; host or cells: NIH-3T3
- Sequence (P18089 whole entry): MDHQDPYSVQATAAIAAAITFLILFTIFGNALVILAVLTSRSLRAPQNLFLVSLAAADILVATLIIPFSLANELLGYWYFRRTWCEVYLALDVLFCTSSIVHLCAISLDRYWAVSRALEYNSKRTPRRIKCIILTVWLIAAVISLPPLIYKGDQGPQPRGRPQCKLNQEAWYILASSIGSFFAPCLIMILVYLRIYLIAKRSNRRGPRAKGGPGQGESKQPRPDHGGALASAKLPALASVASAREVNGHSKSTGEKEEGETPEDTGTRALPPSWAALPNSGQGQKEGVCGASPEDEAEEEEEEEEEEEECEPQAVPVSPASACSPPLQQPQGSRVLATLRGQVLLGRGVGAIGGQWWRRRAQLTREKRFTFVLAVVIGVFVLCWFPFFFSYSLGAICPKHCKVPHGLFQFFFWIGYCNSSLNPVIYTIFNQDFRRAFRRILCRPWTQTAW
- protocol details: RSAT assay, alpha 2B
- Type: cell-based
- condition details: RSAT; ratio of maximal effect to standard full agonist brimonidine (UK14304)

{"compound": "FC(F)Oc1ccccc1CNC1=NCCO1", "(rel. efficacy) Alpha 2B": 0.83}
{"compound": "COc1c(C)cccc1CNC1=NCCS1", "(rel. efficacy) Alpha 2B": 0.98}
{"compound": "Brc1cccc(CNC2=NCCS2)c1", "(rel. efficacy) Alpha 2B": 0.84}
{"compound": "COc1c(Br)cccc1CNC1=NCCS1", "(rel. efficacy) Alpha 2B": 1.1}
{"compound": "Clc1cccc(CNC2=NCCS2)c1Br", "(rel. efficacy) Alpha 2B": 0.85}
{"compound": "Clc1ccccc1CNC1=NCCS1", "(rel. efficacy) Alpha 2B": 0.85}
{"compound": "Brc1cccc(CNC2=NCCO2)c1", "(rel. efficacy) Alpha 2B": 1.0}
{"compound": "Clc1ccccc1CNC1=NCCO1", "(rel. efficacy) Alpha 2B": 1.02}
{"compound": "Cc1cccc(CNC2=NCCS2)c1Cl", "(rel. efficacy) Alpha 2B": 1.27}
{"compound": "Cc1cccc(CNC2=NCCO2)c1C", "(rel. efficacy) Alpha 2B": 1.09}
{"compound": "Cc1cc(Br)c(F)c(CNC2=NCCS2)c1", "(rel. efficacy) Alpha 2B": 1.04}
{"compound": "Clc1ccc(Br)c(CNC2=NCCS2)c1", "(rel. efficacy) Alpha 2B": 1.04}
{"compound": "Cc1c(Cl)cccc1CNC1=NCCS1", "(rel. efficacy) Alpha 2B": 0.99}
{"compound": "FC(F)Oc1cccc(CNC2=NCCO2)c1", "(rel. efficacy) Alpha 2B": 0.6}
{"compound": "Fc1ccc(Cl)c(F)c1CNC1=NCCO1", "(rel. efficacy) Alpha 2B": 0.93}
{"compound": "COc1c(Cl)cccc1CNC1=NCCS1", "(rel. efficacy) Alpha 2B": 1.08}
{"compound": "Fc1ccc(Br)cc1CNC1=NCCS1", "(rel. efficacy) Alpha 2B": 0.85}
{"compound": "Fc1c(Cl)cccc1CNC1=NCCO1 [drawing 19]", "(rel. efficacy) Alpha 2B": 1.09}
{"compound": "Brc1ccccc1CNC1=NCCO1", "(rel. efficacy) Alpha 2B": 1.09}
{"compound": "Brc1ccccc1CNC1=NCCS1", "(rel. efficacy) Alpha 2B": 0.84}
{"compound": "COc1ccccc1CNC1=NCCO1 [drawing 17]", "(rel. efficacy) Alpha 2B": 1.09}
{"compound": "Clc1cccc(CNC2=NCCS2)c1", "(rel. efficacy) Alpha 2B": 0.99}
{"compound": "Fc1c(Br)cccc1CNC1=NCCS1", "(rel. efficacy) Alpha 2B": 0.98}
